Biological target: 5-HT2 receptors (Rattus norvegicus)
Sequence (P14842 whole entry): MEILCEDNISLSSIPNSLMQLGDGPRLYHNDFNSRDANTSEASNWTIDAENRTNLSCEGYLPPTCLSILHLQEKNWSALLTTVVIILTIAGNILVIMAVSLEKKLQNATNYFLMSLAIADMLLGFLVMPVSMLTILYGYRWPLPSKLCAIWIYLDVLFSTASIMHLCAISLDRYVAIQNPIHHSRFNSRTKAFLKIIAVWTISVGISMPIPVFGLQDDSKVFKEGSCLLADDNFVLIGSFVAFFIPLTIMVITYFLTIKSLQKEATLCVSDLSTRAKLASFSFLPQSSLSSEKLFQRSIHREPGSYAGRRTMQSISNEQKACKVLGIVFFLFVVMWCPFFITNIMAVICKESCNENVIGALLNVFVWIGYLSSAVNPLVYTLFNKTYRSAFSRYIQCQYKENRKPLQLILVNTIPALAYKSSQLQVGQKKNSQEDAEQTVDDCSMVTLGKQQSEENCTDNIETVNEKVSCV
Here the recorded pIC50 is given for each entry.
Formally, pIC50 is defined as -log10 of the concentration c, with c in mol/L.

As a guide, the following entries are already answered.
[
  {
    "molecule": "CN1CCN([C@@H]2C[C@@H](c3cccc(F)c3)c3ccc(Cl)cc32)CC1(C)C (racemic)",
    "pIC50": 7.59
  },
  {
    "molecule": "C[C@@H]1CN([C@@H]2C[C@@H](c3ccc(F)cc3)c3ccc(Cl)cc32)C[C@H](C)N1C (relative stereo)",
    "pIC50": 8.48
  },
  {
    "molecule": "CC(C)N1CCN([C@@H]2C[C@@H](c3ccc(F)cc3)c3ccc(Cl)cc32)CC1(C)C (relative stereo) [Compound 40]",
    "pIC50": 8.39
  },
  {
    "molecule": "CC(C)C1CN([C@@H]2C[C@@H](c3ccc(F)cc3)c3ccc(Cl)cc32)CCN1 (relative stereo) [Compound 19]",
    "pIC50": 8.25
  },
  {
    "molecule": "Fc1ccc(C2CC(N3CCN4CCCCC4C3)c3cc(F)ccc32)cc1 (stereo not shown)",
    "pIC50": 7.55
  }
]

Summary line: CC(C)C1CN([C@@H]2C[C@@H](c3ccc(F)cc3)c3ccc(Cl)cc32)CCN1 (relative stereo) [Compound 20] , 5-HT2 receptors (Rattus norvegicus), reported pIC50 = 8.06

Summary line: CC(C)N1CCN([C@@H]2C[C@@H](c3ccc(F)cc3)c3ccc(Cl)cc32)CC1(C)C (single isomer, unassigned) [Compound -40] , 5-HT2 receptors (Rattus norvegicus), reported pIC50 = 8.60

Summary line: CN1CCN([C@@H]2C[C@@H](c3ccc(F)cc3)c3ccc(Cl)cc32)CC12CCCC2 (relative stereo) [Compound 29] , 5-HT2 receptors (Rattus norvegicus), reported pIC50 = 8.28

Summary line: CN1CCN([C@@H]2C[C@@H](c3ccc(F)cc3)c3ccc(Cl)cc32)CC12CCCC2 (single isomer, unassigned) [+29] , 5-HT2 receptors (Rattus norvegicus), reported pIC50 = 7.89

Summary line: CN1CCN([C@@H]2C[C@@H](c3ccccc3F)c3ccc(Cl)cc32)CC1(C)C (racemic) , 5-HT2 receptors (Rattus norvegicus), reported pIC50 = 7.68

Summary line: CN1CCN([C@@H]2C[C@@H](c3ccc(F)cc3)c3ccc(Cl)cc32)CC12CCCC2 (single isomer, unassigned) [Compound -29] , 5-HT2 receptors (Rattus norvegicus), reported pIC50 = 8.40

Summary line: CN1CCN([C@@H]2C[C@@H](c3ccc(F)cc3)c3cccc(Cl)c32)CC1(C)C (racemic) , 5-HT2 receptors (Rattus norvegicus), reported pIC50 = 7.51

Summary line: CCC1(CC)CN([C@@H]2C[C@@H](c3ccc(F)cc3)c3ccc(Cl)cc32)CCN1 (racemic) , 5-HT2 receptors (Rattus norvegicus), reported pIC50 = 7.96

Summary line: CN1CCN([C@@H]2C[C@@H](c3ccc(F)cc3)c3c(Cl)cccc32)CC1(C)C (racemic) , 5-HT2 receptors (Rattus norvegicus), reported pIC50 = 7.54
